For each entry below, report its Spec Values value.
tested on: MCL-1ΔNΔC; assay: High-throughput competitive FP binding screen, FITC-MCL-1 SAHB/MCL-1ΔNΔC interaction; conditions: selectivity for MCL-1ΔNΔC over BCL-XLΔC targeting (BCL-XL % Bound minus MCL-1 % Bound)
When you answer, write just the number.

stdin: Under MCL-1ΔNΔC: Spec Values value of COc1ccc(/C=c2\s/c(=C\C(=O)c3ccco3)[nH]c2=O)cc1O ?
stdout: 48.14

stdin: Quick one: CC1=C(C#N)C(=O)N(CCc2ccccc2)C(=O)/C1=C/c1ccc(-c2ccc3c(c2)COC3=O)o1
stdout: 53.97

stdin: Can you handle N#C/C(=C\C=C\c1ccco1)C(N)=S next?
stdout: 55.72

stdin: What do you get for O=C(/C=C/c1ccco1)Nc1ccc(Br)cc1 ?
stdout: 48.95

stdin: Query O=C1/C(=C\C=C\c2ccco2)SC(=S)N1NS(=O)(=O)c1ccccc1 next
stdout: 66.9

stdin: Moving on to CCOC(=O)c1c(C)oc2c1c1c(c3ccccc32)OCN(C2CC(C)(C)NC(C)(C)C2)C1
stdout: 50.9

stdin: Okay, and CCN1C(=O)C2Cc3cc(OC)c(OC)cc3CN2C1=S (centres unmarked) ?
stdout: 51.9

stdin: What about CC1(C)CC(=O)C2=C(C1)Nc1ccc3ncccc3c1C2c1ccc(O)c(O)c1 (centres unmarked) ?
stdout: 47.01

stdin: Try this molecule too: Cc1nc2c(C(=O)NCc3ccccc3Cl)cnn2c(O)c1Cl
stdout: 63.02

stdin: And then Oc1ccc(NCc2ccc(Br)cc2)cc1 , what is it?
stdout: 56.32

stdin: Note, next up: CC1=C(C#N)C(=O)N=C(O)/C1=C\c1ccc(-c2ccc(S(N)(=O)=O)cc2)o1 [drawing 191]
stdout: 76.4
